For each record, write down the corresponding Population Hoechst High Intensity Objects (%).
# Test system: U2OS
# PROCEDURE_TEXT: Multiplex assay against U2OS
# Assay type: toxicity, cell-based
# RECORDED_CONDITIONS: human, 24 h, 10 µM, compound concentration 10 uM, replicate 1
Answers are plain numbers, in %.

SMILES_STR | SUBJECT_OF_TEST | OBSERVED
COc1ccccc1CN[C@H]1C2CCN(CC2)[C@H]1C(c1ccccc1)c1ccccc1 | U2OS | 8
COc1cc(Nc2nccc(-c3cnn4nc(OC)ccc34)n2)cc(C(F)(F)F)c1 | U2OS | 18

Ask: What value of Population Hoechst High Intensity Objects (%) on U2OS does CNC(=O)Nc1ccc2c(c1)[C@@]1(CC2)OC(=O)N(CC(=O)N(Cc2ccc(F)cc2)[C@@H](C)C(F)(F)F)C1=O have?
Reply: 0

----------
# System: Fibroblast
# PROCEDURE_TEXT: Multiplex assay against human fibroblast
# Assay type: toxicity, cell-based
# RECORDED_CONDITIONS: 24 h, 10 µM, compound concentration 10 uM, replicate 1
Record form. Attribute: Population Healthy Nuclei (%). Fill in for each entry.
One number for each entry, in %.

COMPOUND | Population Healthy Nuclei (%)
C=CC(=O)Nc1ccc2[nH]c(=O)n(C3CCN(Cc4ccc(-c5nc6cc[nH]c(=O)c6cc5-c5ccccc5)cc4)CC3)c2c1 [Borussertib] | 56
C=CC(=O)Nc1cccc(Oc2nc(Nc3ccc(N4CCN(C)CC4)cc3OC)ncc2Cl)c1 | 50
CCCSc1nc(N[C@@H]2C[C@H]2c2ccc(F)c(F)c2)c2nnn([C@@H]3C[C@H](OCCO)[C@@H](O)[C@H]3O)c2n1 [TICAGRELOR] | 33
CNC(=O)Nc1ccc(-c2nc(N3CC4CCC(C3)O4)c3cnn(C4CCC5(CC4)OCCO5)c3n2)cc1 | 35
CNC(=O)Nc1ccc2c(c1)[C@@]1(CC2)OC(=O)N(CC(=O)N(Cc2ccc(F)cc2)[C@@H](C)C(F)(F)F)C1=O [A-486] | 53
Cc1nc(N2CC[C@H](O)C2)ncc1-c1cc(C(F)(F)F)cc2[nH]ncc12 | 63

Ask: Population Healthy Nuclei (%) lookup needed for CN1CCN(Cc2ccc(Nc3ncc(Cl)c(Nc4ccccc4S(=O)(=O)N(C)C)n3)cc2)CC1 [DUBERMATINIB] , thanks.
Reply: 55

----------
# Test system: Fibroblast
# PROCEDURE_TEXT: Multiplex assay against human fibroblast
# Format: toxicity, cell-based
# RECORDED_CONDITIONS: 24 h, 10 µM, compound concentration 10 uM, replicate 2
MEASURED_PARAMETER: Population Membrane Permeable-Phenotype (%)
One number for each entry, in %.

Example results:
COMPOUND | OBSERVED
CC1=C(C(=O)Nc2cc3cn[nH]c3cc2F)C(c2ccc(C(F)(F)F)cc2)CC(=O)N1 (stereo not given) | 4
COc1cc2ncn(-c3cc(OCc4ccccc4C(F)(F)F)c(C(N)=O)s3)c2cc1OC [GW843682X] | 41
COc1ccccc1CN[C@H]1C2CCN(CC2)[C@H]1C(c1ccccc1)c1ccccc1 | 2
COc1cc(Nc2nccc(-c3cnn4nc(OC)ccc34)n2)cc(C(F)(F)F)c1 | 0

Alright, here's another compound for you.
Ask: So what Population Membrane Permeable-Phenotype (%) did Cc1ccc2c(c1)c1c(n2CCc2ccc(C)nc2)CCN(C)C1 [LATREPIRDINE] get with Fibroblast?
Reply: 56
